Data provenance is patent US20210380702A1.

# tested_target: T1, recombinant cynomolgus monkey PD-L1 with a C-terminal mouse IgG2a Fc tag (cynomolgus monkey (Macaca fascicularis))
# T1 construct: also called MfPD-L1-mFc; monkey PD-L1-mFc
# T1 sequence (chain, as listed by the source limits assumed): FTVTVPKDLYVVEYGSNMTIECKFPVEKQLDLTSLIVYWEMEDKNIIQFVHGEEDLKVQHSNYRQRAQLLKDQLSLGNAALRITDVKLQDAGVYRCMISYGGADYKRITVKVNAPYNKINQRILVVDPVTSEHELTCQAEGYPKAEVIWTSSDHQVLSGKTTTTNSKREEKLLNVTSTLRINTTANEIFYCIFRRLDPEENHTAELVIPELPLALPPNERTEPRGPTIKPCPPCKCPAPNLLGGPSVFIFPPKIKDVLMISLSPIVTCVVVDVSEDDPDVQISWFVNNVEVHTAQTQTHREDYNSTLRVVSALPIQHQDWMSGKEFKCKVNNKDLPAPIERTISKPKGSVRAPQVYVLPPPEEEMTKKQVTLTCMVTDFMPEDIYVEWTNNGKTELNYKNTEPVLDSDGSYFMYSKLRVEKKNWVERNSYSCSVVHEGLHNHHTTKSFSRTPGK
# procedure_details: SPR (Biacore), mAb captured, 25C
observed_property: koff (s⁻¹)
Answers are plain numbers, in s⁻¹.

Task: Please indicate koff recorded for H1H9336P (antibody, human IgG1, V domains shown) VH: EVQLVESGGGLVQPGRSLRLSCAASGFTFDDFAMHWVRQAPGKGLEWVSGISWTGGNMDYANSVKGRFTISREDAKNSLYLQMNSLRAADTALYYCVKDIRGIVATGGAFDIWGRGTMVTVSS VL: DIQMTQSPSSLSASVGDRVTISCRASQTISTYLNWFQQKPGKAPKLLIYVVSSLQSGVPSRFSGSGSGTDFTLTISSLQPEDFATYYCQQSYSTPFTFGPGTKVDIK
Output: 6.16e-05
